Bliss excess reference
- Test system: SK-MM-2 (Plasma Cell Myeloma);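 note: after 72 h of two-drug dosing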
- assay_remarks: Bliss excess, mean over the matrix (fraction); higher = more synergy
recorded_metric: Bliss excess

O=C(c1cc(Cc2n[nH]c(=O)c3ccccc23)ccc1F)N1CCN(C(=O)C2CC2)CC1 [Olaparib] + COc1nnc2ccc(N3CCC(c4ccc(OCCN5CCN(C)C(=O)[C@H]5C)cc4)CC3)nn12 [AZD5153] (first compound max 10 µM, 7x7, partner max 1 µM)	-0.032
C[C@@H]1COCCN1c1cc(C2([S@](C)(=N)=O)CC2)nc(-c2ccnc3[nH]ccc23)n1 [AZD6738] + C1CC(C1)(C(=O)[O-])C(=O)[O-].N.N.[Pt+2] [Carboplatin] (first compound max 10 µM, 7x7, partner max 10 µM)	-0.0045
N#Cc1cnc(Nc2cc(NC[C@H]3CNCCO3)c(C(F)(F)F)cn2)cn1 [SRA737] + O=c1[nH]cc(F)c(=O)[nH]1 [5-Fluorouracil] (first compound max 10 µM, 7x7, partner max 20 µM)	-0.034
N#Cc1cnc(Nc2cc(NC[C@H]3CNCCO3)c(C(F)(F)F)cn2)cn1 [SRA737] + CCc1c2c(nc3ccc(O)cc13)-c1cc3c(c(=O)n1C2)COC(=O)[C@]3(O)CC [SN-38] (first compound max 10 µM, 7x7, partner max 0.3 µM)	0.014
O=C(c1cc(Cc2n[nH]c(=O)c3ccccc23)ccc1F)N1CCN(C(=O)C2CC2)CC1 [Olaparib] + CC1(C)CCC(CN2CCN(c3ccc(C(=O)NS(=O)(=O)c4ccc(NCC5CCOCC5)c([N+](=O)[O-])c4)c(Oc4cnc5[nH]ccc5c4)c3)CC2)=C(c2ccc(Cl)cc2)C1 [Venetoclax] (first compound max 10 µM, 7x7, partner max 1 µM)	0.0141
